Assign inhibition in vivo at 10 mg/kg to each entry below.
System: DTH granuloma (DTH GRA) lesion in mBSA-sensitized mice
Assay: Delayed Type Hypersensitivity Granuloma Assay (DTH GRA) model for inflammation
Format: in vivo, mouse
Settings: Mus musculus, po, 216 h, Table 2, Formula 2 compounds; 10 mg/kg PO; mouse DTH granuloma excised after nine days
Counter-ions that a name gives are not always drawn.
Number only, in %; omit the unit.

Which inhibition in vivo at 10 mg/kg value is on record for CCOP(=O)(OCC)C(CCc1nc(-c2ccccc2)cc(=O)n1CC)P(=O)(OCC)OCC ? 12

What about CCOP(=O)(OCC)C(CCc1nc(-c2ccc(Br)cc2)cc(=O)n1C)P(=O)(OCC)OCC ? 20

Moving on to the next compound: C=CCn1c(CCC(P(=O)(OCC)OCC)P(=O)(OCC)OCC)nc(-c2ccccc2)cc1=O 7

Next record, please: CCOc1ccc(-c2cc(=O)n(C)c(CCC(P(=O)(OCC)OCC)P(=O)(OCC)OCC)n2)cc1 46

What do you have for CCOP(=O)(OCC)C(CCc1nc(-c2cccc(OC)c2)cc(=O)n1C)P(=O)(OCC)OCC ? 13

And what about the compound CCOP(=O)(OCC)C(CCc1nc(-c2ccccc2)c(Br)c(=O)n1C)P(=O)(OCC)OCC ? 7

Quick one: CCOP(=O)(OCC)C(CCc1nc(-c2cccc(C(F)(F)F)c2)cc(=O)n1C)P(=O)(OCC)OCC 6

Further, for CCOP(=O)(O)C(CCc1nc(-c2ccccc2)cc(=O)n1C)P(=O)(OCC)OCC (stereo not shown) [rr, sodium salt] ? 50

Repeat with CCOP(=O)(OCC)C(CCc1nc(-c2cccc(C)c2)cc(=O)n1C)P(=O)(OCC)OCC 40

Consider next the compound CCOP(=O)(OCC)C(CCc1nc(-c2ccccc2)cc(=O)n1C)P(=O)(OCC)OCC in the same way. 60

Now give it for CCOP(=O)(OCC)C(CCc1nc(-c2ccc(OC)cc2)cc(=O)n1C)P(=O)(OCC)OCC too. 22

What would you report for CCCn1c(CCC(P(=O)(OCC)OCC)P(=O)(OCC)OCC)nc(-c2ccccc2)cc1=O ? 41

Please do the same for CCOP(=O)(OCC)C(CCc1nc(-c2ccccc2)cc(=O)n1Cc1ccccc1)P(=O)(OCC)OCC as well. 17

Can you handle CCOP(=O)(OCC)C(CCc1nc(-c2ccc(N(C)C)cc2)cc(=O)n1C)P(=O)(OCC)OCC next? 63

Try this compound too: COP(=O)(OC)C(CCc1nc(-c2ccccc2)cc(=O)n1C)P(=O)(OC)OC 36

Would you kindly repeat that for CCOP(=O)(OCC)C(CCc1nc(-c2cccc(F)c2)cc(=O)n1C)P(=O)(OCC)OCC ? 32

Values compiled from patent US5397774A.
